# Assayed System: MERTK (UniProt Q12866)
# Sequence (Q12866 whole entry, looked up): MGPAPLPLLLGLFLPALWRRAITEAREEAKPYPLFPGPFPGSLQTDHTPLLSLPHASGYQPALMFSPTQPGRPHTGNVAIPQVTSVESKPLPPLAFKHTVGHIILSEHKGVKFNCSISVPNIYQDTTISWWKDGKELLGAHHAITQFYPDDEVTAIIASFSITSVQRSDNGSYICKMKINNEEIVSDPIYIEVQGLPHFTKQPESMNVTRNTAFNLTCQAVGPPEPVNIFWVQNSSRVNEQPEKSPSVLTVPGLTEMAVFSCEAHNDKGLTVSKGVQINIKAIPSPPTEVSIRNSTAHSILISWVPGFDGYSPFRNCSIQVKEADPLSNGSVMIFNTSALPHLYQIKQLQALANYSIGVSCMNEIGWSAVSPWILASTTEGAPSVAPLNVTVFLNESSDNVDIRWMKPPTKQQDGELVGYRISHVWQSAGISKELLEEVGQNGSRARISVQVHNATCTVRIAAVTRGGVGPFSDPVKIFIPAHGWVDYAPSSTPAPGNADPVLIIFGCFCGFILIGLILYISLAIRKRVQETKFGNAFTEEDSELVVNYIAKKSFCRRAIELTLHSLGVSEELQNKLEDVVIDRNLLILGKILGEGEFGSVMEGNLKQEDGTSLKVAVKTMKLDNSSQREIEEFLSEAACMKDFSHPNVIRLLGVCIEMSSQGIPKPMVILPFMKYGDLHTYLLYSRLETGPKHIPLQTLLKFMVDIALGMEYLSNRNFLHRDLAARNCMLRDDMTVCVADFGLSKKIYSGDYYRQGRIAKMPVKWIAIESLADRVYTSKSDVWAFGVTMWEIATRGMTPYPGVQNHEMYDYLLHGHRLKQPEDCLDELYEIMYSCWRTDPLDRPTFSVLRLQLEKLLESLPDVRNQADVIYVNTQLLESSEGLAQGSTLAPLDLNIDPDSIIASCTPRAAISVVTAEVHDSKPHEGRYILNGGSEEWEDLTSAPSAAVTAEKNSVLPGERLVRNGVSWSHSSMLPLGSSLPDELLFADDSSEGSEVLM
# Protocol Details: phosphorylation enrichment, bacterial display (enrichment ratio); higher = better substrate or ligand; peptides without Tyr show the background
Examples of sequences with documented phosphorylation enrichment follow.

Chain Sequence | phosphorylation enrichment
NRKGKYFNVER [ANAPC4_Y469] | 0.411
ANAFIYDVQLP [L1CAM_Y420_V421D_YF] | 7.43
SIKDKYVTAVY [KCNH2_Y611_L615V] | 0.443
EARRVYGDIIF [ALDH5A1_Y175_H180Y_YF] | 0.536
CTTIHYNFMWN [TP53_Y234_C238W_YF] | 0.717
TSEASYFKSLN [NGEF_Y288_YF] | 0.481
GFIISYREEEQ | 0.313
TPGPNYCPGFN [USH2A_Y463_R464C_YF] | 0.507
QTPVLYTMLDH [MPZ_Y220_A221T] | 13.4
RTVPLYESLRK [DDB1_Y718_P721L] | 8.17
TEFIQYMRRKN [MAX_Y73_YF] | 0.472
LIFTNYEAGKD [GSTP1_Y112_YF] | 0.675
STSKTYVISQT [RBBP6_Y87_R91Q] | 0.44
AELKLYSGAQT [ZAP70_Y178_R175L] | 0.395
LIFVSYDDWDY [GRIN2A_Y281_S278F] | 0.618
ACCLLYRGDVV [TUBA4A_Y319] | 0.709
FATAGYGSLEA [EPHA10_Y959_A956T] | 0.425
ALRASYTPSPV [ESS2_Y418_A423V] | 0.435
PLSGEYFTLQI [TP53_Y327_D324S] | 0.763
KGEDFYFVTCH [FHL1_Y149_C150Y_YF] | 0.491
RAIELCNDKEK [OTULIN_Y244_Y244C] | 0.395
ELQDDYEDTME [SLC4A1_Y8_M11T] | 0.526
SLLPDYEDEEE [ZNF830_Y159] | 0.631
TKVTFYKQPMF [GBA_Y451_D448V] | 0.419
LTTPTYGDLNH [TUBB_Y222] | 0.836
GRRNTYYASIA [ACADM_Y352] | 0.774
DRLASYRDKVR [KRT12_Y139_L140R] | 0.332
NREGVYTVSAP [TGFBI_Y537_F540S] | 1.16
QNVADYMRFLM [RPL5_Y207_YF] | 0.814

* * *

SH2 binding enrichment for assorted sequences
# Assayed System: SHP2-C SH2;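 further: peptide library displayed on the E. coli surface as eCPX fusions, selected cells deep-sequenced, score is each peptide's frequency after selection divided by its frequency in the input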
# Protocol Details: SH2 binding enrichment of the phosphorylated peptide, bacterial display (enrichment ratio); higher = better substrate or ligand; peptides without Tyr show the background
Reported Metric: SH2 binding enrichment

Chain Sequence | Assayed System | Measurement
ISKKIYDPIHD [CTNNA3_Y614_T616P] | SHP2-C SH2 | 0.648
YDYKKYGKGLR [ZNF445_Y433] | SHP2-C SH2 | 1.02
ARAGEYGAEAL [HBA1_Y25_H21R] | SHP2-C SH2 | 0.667
PLSGEYFTLQI [TP53_Y327_D324S] | SHP2-C SH2 | 0.679
YKGKNYKPLDL [RPL35_Y78_K77N] | SHP2-C SH2 | 0.846
GEDEPYAEPYA [APBA1_Y183_S184A] | SHP2-C SH2 | 0.885
EFAAGYNVKFD [GPX4_Y123] | SHP2-C SH2 | 0.727
AVLALHNSTRD [TGFB1_Y81_Y81H] | SHP2-C SH2 | 0.588
WAMPAYNRSKL [WWOX_Y293_L291P] | SHP2-C SH2 | 0.668
ADFPDYKFRPR [SOX11_Y116_YF] | SHP2-C SH2 | 0.544
HAVYVYDICHV [TWNK_Y508] | SHP2-C SH2 | 0.898
IMFTSYFLTIL [TAS2R16_Y239_V235M] | SHP2-C SH2 | 0.963
KLASTYREAAT [DEAF1_Y483_H479L] | SHP2-C SH2 | 0.508
SSVKPYRVYCD [FGB_Y266] | SHP2-C SH2 | 0.94
